Molecular target: T1, APBA1_2, Q02410
T1 sequence (Q02410 742-832, limits assumed, looked up): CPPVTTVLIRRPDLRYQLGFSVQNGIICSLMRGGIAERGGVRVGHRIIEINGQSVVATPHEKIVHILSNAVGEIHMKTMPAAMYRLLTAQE
Assay: holdup assay
Parameters: key: below the threshold = too weak to quantify, mostly under pKd 3.1 to 4
Details: plain residues with an end cap or a label only (N-terminal biotin on a linker: ado-ado)
Use Fulfilled when the recorded pKd is no lower than 4; use Not fulfilled when it is lower.

binder: SQPLLVHDDV [KIT, P10721]
category: Not fulfilled
--
binder: PLPPEEESWV [GAS2L2, Q8NHY3]
category: Fulfilled
--
binder: NNMAFETTHF [SLC5A12, Q1EHB4]
category: Not fulfilled
--
binder: FHSIKQSTAV [CRHR1, P34998]
category: Fulfilled
--
binder: RGKNRRQSIF [CDK18, Q07002]
category: Not fulfilled
--
binder: NSTHNLKDYV [CLDN20, P56880]
category: Not fulfilled
--
binder: GDSSRKEYFI [GYPC, P04921]
category: Not fulfilled
